B1: TPR 5TU (parent)
chain: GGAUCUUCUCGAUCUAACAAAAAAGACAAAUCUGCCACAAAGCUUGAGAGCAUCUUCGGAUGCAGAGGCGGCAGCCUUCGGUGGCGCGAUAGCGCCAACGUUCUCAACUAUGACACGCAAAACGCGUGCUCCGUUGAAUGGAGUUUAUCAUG

variants of: B1; assay: polymerase ribozyme fitness, log enrichment relative to wild type (log ratio); higher = more active; in vitro selection for triplet polymerase activity
This sample holds only a part of the variants without activity.
Parameter: polymerase ribozyme fitness (log ratio). Scope: all listed entries.
Enter a number only.

Some variants with recorded polymerase ribozyme fitness (log ratio):
# Mutation String, polymerase ribozyme fitness (log ratio)
measured = [
    ("G11U C38A C125U", -2.71),
    ("C87U G133U", -2.95),
    ("U7C C57G A98G", -3.3),
]

Query (variant): A12U C96U U144G ; field requested: polymerase ribozyme fitness (log ratio)
0.0703

Item under review: A19U C85G A121G . Reported polymerase ribozyme fitness (log ratio)?
-1.62

I would be grateful if you could share the reported polymerase ribozyme fitness (log ratio) for C54U C57G G84U C85U C132U .
-3.94

Report polymerase ribozyme fitness (log ratio) for U77C G94C please.
-3.48

Tell me the measured polymerase ribozyme fitness (log ratio) of A110U , please.
-3.57

Entry U4C A26U C69U : reported polymerase ribozyme fitness (log ratio) = ?
-2.9

Which polymerase ribozyme fitness (log ratio) is listed for U15G ?
-0.334

Which polymerase ribozyme fitness (log ratio) value belongs to U6G G59C ?
0.358

# lookup: polymerase ribozyme fitness (log ratio) of A30U U144A
-3.67
